Assay: Alizarin Red S (ARS) displacement assay, binding to fructose
Details: ARS displacement, 0.1M phosphate buffer, pH 7.4, 25° C.
Experimental: The association constant for the binding event between Alizarin Red S (ARS) and the compounds of each of examples 1-24 was determined using standard methods in the art. […] The example compound-ARS solution was incubated for 5-45 minutes at 25° C., and absorbance intensity was measured using excitation wavelength 468 nm and emission wavelength 585 nm. […]
metric: Kd (mM)

Some compounds with recorded Kd:
- sampleSmiles: "O=C(O)CN(Cc1cccc(CNC(=O)c2ccc(B(O)O)c(F)c2)c1)C(=O)c1ccc(B(O)O)c(F)c1"
  assayValue: 9.52
- sampleSmiles: "O=C(O)CN(Cc1ccc(CNC(=O)c2cc(B(O)O)cc([N+](=O)[O-])c2)cc1)C(=O)c1cc(B(O)O)cc([N+](=O)[O-])c1"
  assayValue: 12.1
- sampleSmiles: "O=C(O)CN(CCCCCNC(=O)c1ccc(B(O)O)c(F)c1)C(=O)c1ccc(B(O)O)c(F)c1"
  assayValue: 5.86
- sampleSmiles: "O=C(O)CN(Cc1cccc(CNC(=O)c2ccc(F)c(B(O)O)c2)c1)C(=O)c1ccc(F)c(B(O)O)c1"
  assayValue: 6.5
- sampleSmiles: "O=C(O)CN(CCCCCNC(=O)c1cc(B(O)O)cc([N+](=O)[O-])c1)C(=O)c1cc(B(O)O)cc([N+](=O)[O-])c1"
  assayValue: 24.7

1 = O=C(O)CN(C(=O)c1ccc(F)c(B(O)O)c1)[C@H]1CCCC[C@H]1NC(=O)c1ccc(F)c(B(O)O)c1
2 = O=C(O)CN(Cc1cccc(CNC(=O)c2cc(Br)cc(B(O)O)c2)c1)C(=O)c1cc(Br)cc(B(O)O)c1
Task for the reader: decide whether 1 or 2 has the larger Kd. Lab note: record the label of whichever item you select. 2
(2: 9.36 mM, 1: 6.04 mM)

* * *

assay: Alizarin Red S (ARS) displacement assay, binding to glucose; conditions: ARS displacement, 0.1M phosphate buffer, pH 7.4, 25° C.
# reported Kd; entries follow
Output spec: scalar in mM, unitless text.

Look at this compound and give its reported Kd. O=C(O)CN(CCCNC(=O)c1cc(B(O)O)cc([N+](=O)[O-])c1)C(=O)c1cc(B(O)O)cc([N+](=O)[O-])c1 6.5

Look at this compound and give its reported Kd. NC(=O)[C@H](CNC(=O)c1cc(B(O)O)ccc1[N+](=O)[O-])NC(=O)c1cc(B(O)O)ccc1[N+](=O)[O-] 29.4

Look at this compound and give its reported Kd. O=C(O)CN(CCCCNC(=O)c1cc(B(O)O)cc([N+](=O)[O-])c1)C(=O)c1cc(B(O)O)cc([N+](=O)[O-])c1 99.8
